Let's go through some recorded MIC values for Bacillus subtilis IFO 3007 together.
# unit: µg/mL | format: bare number

INSERT INTO measurements (compound, measure_name, numeric_readout) VALUES
  ('CC1(C)S[C@@H]2[C@H](NC(=O)[C@H](N)c3ccccc3)C(=O)N2[C@H]1C(=O)O [Ampicillin, ampicillin, reference compound]', 'MIC', 0.5),
  ('CCOC(=O)N1CCN(Cn2nc(C34CC5CC(CC(C5)C3)C4)n(-c3ccccc3)c2=S)CC1', 'MIC', 16),
  ('CCOC(=O)CSc1nnc(C23CC4CC(CC(C4)C2)C3)n1-c1ccccc1', 'MIC', 16);

Then there is this compound:
Return reported MIC. Input compound: CNC(C)C1CCC(N)C(OC2C(N)CC(N)C(OC3OCC(C)(O)C(NC)C3O)C2O)O1 (stereo not shown) [Gentamicin, gentamicin, reference compound] 2

Just for reference, paper PMC4026406 is where these values come from.
